assay-text: Effect of pH value on the stability of the solution (purity)
Type: physicochemical
condition-set: day 28, pH 7.0, 7% in 25% ethanol, 25° C.
So I've got a bunch of molecules here, and I need their Purity(%) from day 0-28 values.
Please state the number and follow it with the unit.

{"molecule": "CC(C)Cc1ccc([C@@H](C)C(=O)OCCN(C)C)cc1.Cl (racemic) [C-5]", "Purity(%) from day 0-28": "47.1 ± 0.3%"}
{"molecule": "CCN(CC)CCOC(=O)C(C)c1ccc(CC(C)C)cc1.Cl (racemic) [C-4]", "Purity(%) from day 0-28": "52.8 ± 0.4%"}
{"molecule": "CC(C)Cc1ccc([C@@H](C)C(=O)OCCC2CCNCC2)cc1.Cl (racemic) [C-8]", "Purity(%) from day 0-28": "48.3 ± 0.4%"}
{"molecule": "CC(C)Cc1ccc([C@@H](C)C(=O)OCCN2CCCC2)cc1.Cl (racemic) [C-9]", "Purity(%) from day 0-28": "48.1 ± 0.3%"}
{"molecule": "CCCCN(CCCC)CCOC(=O)C(C)c1ccc(CC(C)C)cc1.Cl (racemic) [C-6]", "Purity(%) from day 0-28": "51.5 ± 0.3%"}

Answer for every listed entry: what is its Purity(%) from day 0-28? The entries follow.
1. CC(C)Cc1ccc([C@@H](C)C(=O)OC[C@@H]2CCCN2)cc1.Cl [C-7]
2. CC(C)Cc1ccc(C(C)C(=O)OCCN2CCCCC2)cc1.Cl (racemic) [C-10]

["48.0 ± 0.3%", "47.8 ± 0.3%"]

###

assay-text: Effect of concentration on the stability of the solution (purity over time)
condition-set: 10 wt %; in water at 25° C.
readout-kind: Purity at Day 3 (%)
One number for each entry, in %.

Answered cases to consult:
{"compound": "CCN(CC)CCOC(=O)CCc1ccc2cc(OC)ccc2c1.Cl", "value-reported": 98.4}
{"compound": "CCN(CC)CCOC(=O)Cc1c(C)n(C(=O)c2ccc(Cl)cc2)c2ccc(OC)cc12.Cl", "value-reported": 98.4}
{"compound": "CCN(CC)CCOC(=O)CCc1nc(-c2ccccc2)c(-c2ccccc2)o1.Cl", "value-reported": 98.6}
{"compound": "CCN(CC)CCOC(=O)CC1=C(C)C(=Cc2ccc([S+](C)[O-])cc2)c2ccc(F)cc21.Cl (stereo not shown)", "value-reported": 97.5}
{"compound": "CCN(CC)CCOC(=O)Cc1sc(-c2ccccc2)nc1-c1ccc(Cl)cc1.Cl", "value-reported": 98.8}
{"compound": "CCN(CC)CCOC(=O)Cc1ccc(C(=O)c2ccc(C)cc2)n1C.Cl", "value-reported": 97.9}

Consider now this further compound.
Report Purity at Day 3 for CCN(CC)CCOC(=O)C(C)c1ccc2oc(-c3ccc(Cl)cc3)nc2c1.Cl (stereo not shown)
98.4

###

assay-text: Effect of temperature (and pH) on the stability of the solution (purity)
Type: physicochemical
condition-set: 7% solution in water, pH 1.0, day 21, 25° C.
readout-kind: Purity(%) at day 21 (25° C.)
Numbers only, in %.

Answered cases to consult:
{"molecule": "CCN(CC)CCOC(=O)COc1nn(Cc2ccccc2)c2ccccc12.Cl", "Purity(%) at day 21 (25° C.)": 63.5}
{"molecule": "CCN(CC)CCOC(=O)COC(=O)Cc1c(C)n(C(=O)c2ccc(Cl)cc2)c2ccc(OC)cc12.Cl", "Purity(%) at day 21 (25° C.)": 67.3}
{"molecule": "CCN(CC)CCOC(=O)C(C)c1ccc2oc(-c3ccc(Cl)cc3)nc2c1.Cl (stereo not drawn)", "Purity(%) at day 21 (25° C.)": 69.2}

Answer for every listed entry: what is its Purity(%) at day 21 (25° C.)? The entries follow.
1. CCN(CC)CCOC(=O)CCc1nc(-c2ccccc2)c(-c2ccccc2)o1.Cl
2. CCN(CC)CCOC(=O)CC1=C(C)C(=Cc2ccc([S+](C)[O-])cc2)c2ccc(F)cc21.Cl (stereo not drawn)
3. CCN(CC)CCOC(=O)Cc1c(C)n(C(=O)c2ccc(Cl)cc2)c2ccc(OC)cc12.Cl

59.9
67.5
69.0
